Molecular target: angiotensin converting enzyme (Oryctolagus cuniculus)
Construct: the supernatant was further purified with hydroxyapatite to obtain an angiotensin converting enzyme solution; from tissue; host or cells: rabbit lung (acetone powder)
Sequence (P12822 34-1310): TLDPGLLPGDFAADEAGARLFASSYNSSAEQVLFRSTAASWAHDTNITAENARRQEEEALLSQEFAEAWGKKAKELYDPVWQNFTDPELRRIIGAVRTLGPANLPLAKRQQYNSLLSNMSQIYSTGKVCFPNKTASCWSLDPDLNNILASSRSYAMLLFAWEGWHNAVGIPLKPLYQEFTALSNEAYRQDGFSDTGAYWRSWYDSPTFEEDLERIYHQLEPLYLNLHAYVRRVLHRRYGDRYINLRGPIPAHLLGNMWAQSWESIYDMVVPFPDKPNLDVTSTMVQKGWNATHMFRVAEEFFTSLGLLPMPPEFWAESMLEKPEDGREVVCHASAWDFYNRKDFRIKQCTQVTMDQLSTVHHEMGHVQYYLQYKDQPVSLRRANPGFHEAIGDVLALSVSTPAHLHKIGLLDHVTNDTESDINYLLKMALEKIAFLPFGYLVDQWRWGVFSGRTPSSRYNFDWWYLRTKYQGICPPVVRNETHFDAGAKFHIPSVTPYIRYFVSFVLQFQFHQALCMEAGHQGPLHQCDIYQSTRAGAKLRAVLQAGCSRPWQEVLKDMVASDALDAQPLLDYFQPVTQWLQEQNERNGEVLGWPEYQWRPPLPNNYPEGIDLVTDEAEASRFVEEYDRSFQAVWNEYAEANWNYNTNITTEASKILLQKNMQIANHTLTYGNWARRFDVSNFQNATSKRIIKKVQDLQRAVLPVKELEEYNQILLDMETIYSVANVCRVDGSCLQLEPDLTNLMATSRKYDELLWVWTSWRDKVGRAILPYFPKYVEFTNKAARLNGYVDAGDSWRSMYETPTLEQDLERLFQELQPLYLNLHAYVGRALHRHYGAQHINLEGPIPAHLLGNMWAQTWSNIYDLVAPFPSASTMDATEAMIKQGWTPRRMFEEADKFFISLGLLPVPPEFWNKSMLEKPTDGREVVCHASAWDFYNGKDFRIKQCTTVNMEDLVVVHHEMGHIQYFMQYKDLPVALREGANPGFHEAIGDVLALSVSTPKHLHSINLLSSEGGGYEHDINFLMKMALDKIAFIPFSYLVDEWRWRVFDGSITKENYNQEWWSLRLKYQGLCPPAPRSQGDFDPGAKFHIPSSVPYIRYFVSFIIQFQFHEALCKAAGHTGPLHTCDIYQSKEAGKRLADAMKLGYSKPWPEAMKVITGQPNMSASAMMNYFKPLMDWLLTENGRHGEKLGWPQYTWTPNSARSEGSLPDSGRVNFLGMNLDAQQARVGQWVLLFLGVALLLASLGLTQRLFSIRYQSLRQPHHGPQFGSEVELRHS
Test: ACE inhibition activity (hippuroylhistidylleucine substrate, hippuric acid absorbance at 228 nm)
Assay type: biochemical, rabbit
Conditions: rabbit lung ACE, 5 mM hippuroylhistidylleucine, 37° C. 30 minutes; read-out: IC50
Residues, ends and D or L forms follow the SMILES beside them.
metric: IC50 (µM)

• CC(C)C[C@H](N)C(=O)N[C@@H](CCC(N)=O)C(=O)N[C@@H](CCC(N)=O)C(=O)O [L--Leu--L--Gln--L--Gln, L-Leu-L-Gln-L-Gln] (H-Leu-Gln-Gln-OH) = 100

(I) N[C@@H](Cc1ccccc1)C(=O)N[C@@H](Cc1ccc(O)cc1)C(=O)O [L--Phe--L--Tyr, L-Phe-L-Tyr] (H-Phe-Tyr-OH)
(II) CC[C@H](C)[C@H](N)C(=O)N[C@@H](CCCNC(=N)N)C(=O)N[C@@H](C)C(=O)O [L--Ile--L--Arg--L--Ala, L-Ile-L-Arg-L-Ala] (H-Ile-Arg-Ala-OH)
Req: Looking only at measured IC50, which entry is lower, I or II ? Identify your selection by its label.
Resp: II

Values from patent US5238921A
